# MEASURED ON: cynomolgus Siglec-2/CD22 (Macaca fascicularis, UniProt A0A2K5WCZ6)
# Sequence (A0A2K5WCZ6 entry or part of it): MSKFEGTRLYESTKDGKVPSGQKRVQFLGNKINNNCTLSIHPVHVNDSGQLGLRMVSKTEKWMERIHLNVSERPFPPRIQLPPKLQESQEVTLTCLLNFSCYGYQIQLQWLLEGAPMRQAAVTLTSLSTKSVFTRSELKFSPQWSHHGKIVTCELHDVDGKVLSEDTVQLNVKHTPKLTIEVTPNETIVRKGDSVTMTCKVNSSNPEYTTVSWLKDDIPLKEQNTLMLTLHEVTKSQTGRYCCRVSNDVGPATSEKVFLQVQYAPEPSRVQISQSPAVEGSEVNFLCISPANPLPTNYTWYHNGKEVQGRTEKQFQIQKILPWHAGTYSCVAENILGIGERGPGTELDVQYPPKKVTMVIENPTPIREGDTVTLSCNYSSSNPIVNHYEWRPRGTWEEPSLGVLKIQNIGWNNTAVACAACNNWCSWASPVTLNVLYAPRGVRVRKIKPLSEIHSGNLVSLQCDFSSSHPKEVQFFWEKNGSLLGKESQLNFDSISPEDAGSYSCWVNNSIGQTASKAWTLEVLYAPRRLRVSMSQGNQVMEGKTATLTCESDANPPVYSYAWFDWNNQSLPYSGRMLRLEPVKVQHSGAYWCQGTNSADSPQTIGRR
# MEASUREMENT NOTES: biochemical
# COND: SPR, steady-state analysis; read-out: Affinity cyno CD22
REPORTED ENDPOINT: Kd

RECORD SMILES	Kd
CC(=O)NCCOCCOCCOCCOCCn1cc(CCCCCCO[C@]2(C(=O)O)C[C@H](O)[C@@H](NC(=O)CO)[C@H]([C@H](O)[C@H](O)CNC(=O)Cc3ccc(C(F)F)cc3)O2)nn1	< 1 µM
C#CCOCCOCCO[C@]1(C(=O)O)C[C@H](O)[C@@H](NC(=O)CO)[C@H]([C@H](O)[C@H](O)CNC(=O)c2cccc(Cl)c2)O1	> 10 µM
C#CCOCCOCCO[C@]1(C(=O)O)C[C@H](O)[C@@H](NC(=O)CO)[C@H]([C@H](O)[C@H](O)CNC(=O)Cc2ccc(-c3ccccc3O)cc2)O1	1 to 10 µM
C#CCNC(=O)CCOCCOCCO[C@]1(c2nn[nH]n2)C[C@H](O)[C@@H](NC(=O)CO)[C@H]([C@H](O)[C@H](O)CNC(=O)Cc2ccc(Cl)cc2)O1	> 10 µM

Let's switch to this compound now.
Would you kindly share the measured Kd for C#CCNC(=O)c1ccc(CS[C@]2(C(=O)O)C[C@H](O)[C@@H](NC(=O)CO)[C@H]([C@H](O)[C@H](O)CNC(=O)Cc3ccc(Cl)cc3)O2)cc1 ?
< 1 µM
